Molecular target: Tyrosine-protein kinase FRK (Homo sapiens)
Settings: at 1 µM
metric: residual activity (%)
One number for each entry, in %.

Record residual activity per entry; entries follow.
1. COc1ccc(CNc2nc(N(CCO)CCO)nc3c2ncn3C(C)C)cc1
2. Oc1c2ccccc2c2c3c(cccc13)N=N2
3. NC(=O)c1ccc2[nH]c(-c3ccc(Oc4ccc(Cl)cc4)cc3)nc2c1
4. c1ccc2c(-c3ccncc3)c[nH]c2c1
5. Cn1cnc2cc3c(Nc4cccc(Br)c4)ncnc3cc21

1: 95; 2: 91; 3: 94; 4: 88; 5: 72

Record residual activity per entry; entries follow.
1. O=c1cc(-c2cccc3c2Sc2ccccc2S3)oc(N2CCOCC2)c1
2. Cc1cncc2cccc(S(=O)(=O)N3CCCN(C(=O)CN)C[C@H]3C)c12
3. Cc1ccc(S(=O)(=O)/C=C/C#N)cc1

94
87
70

Record residual activity per entry; entries follow.
1. c1ccc(-c2n[nH]cc2-c2ccnc3ccccc23)nc1
2. CO[C@H]1[C@@H](OC)C[C@H](C)[C@@H](OC)C2=CC(=O)C=C(NC(=O)/C(C)=C/C=C/[C@H](OC)[C@@H](OC(N)=O)/C(C)=C/[C@@H]1C)C2=O
3. CO[C@H]1C[C@@H]2CC[C@@H](C)[C@@](O)(O2)C(=O)C(=O)N2CCCC[C@H]2C(=O)O[C@H]([C@H](C)C[C@@H]2CC[C@@H](O)[C@H](OC)C2)CC(=O)[C@H](C)/C=C(\C)[C@@H](O)[C@@H](OC)C(=O)[C@H](C)C[C@H](C)/C=C/C=C/C=C/1C
4. Nc1ccc2ncnc(NCCc3ccc(Oc4ccccc4)cc3)c2c1
5. CCN(CC)CCCCN1c2ccccc2Oc2ccc(Cl)cc21
6. COc1cc2ncc(-c3ccccc3)nc2cc1OC

1. 84
2. 114
3. 95
4. 93
5. 105
6. 90

Record residual activity per entry; entries follow.
1. O=C(Nc1cccc(Nc2cc(Nc3cccc(C(F)(F)F)c3)ncn2)c1)C1CC1
2. COc1cc2ncnc(Nc3ccc(NC(=O)c4ccccc4)cc3)c2cc1OC
3. Cc1cc(Nc2nc(-c3ccccc3)nc3ccccc23)n[nH]1
4. O=C1NC(=O)c2c1c1c3ccccc3[nH]c1c1[nH]c3cc(Br)ccc3c21
5. O=[N+]([O-])c1ccc(-c2nc(-c3ccc(F)cc3)c(-c3ccncc3)[nH]2)cc1
6. CN(C)c1ccc(/C=C2\C(=O)Nc3ccccc32)cc1

1. 101
2. 109
3. 46
4. 94
5. 57
6. 97

----------
Target: Vascular endothelial growth factor receptor 3 (Homo sapiens)
Settings: at 10 µM
// boundary case: residual activity equal to 40% maps to NO; strictly smaller maps to YES

INSERT INTO results (smiles, study_system, cat) VALUES
  ('COc1cc2ncnc(Nc3ccc(Oc4ccccc4)cc3)c2cc1OC', 'Vascular endothelial growth factor receptor 3 (Homo sapiens)', 'YES');

is_below(residual activity, 40%) for CCC(=O)Nc1ccc2ncnc(Nc3cccc(Br)c3)c2c1 ?
NO

is_below(residual activity, 40%) for COc1cc2ncnc(N3CCN(C(=O)Nc4ccc(Oc5ccccc5)cc4)CC3)c2cc1OC ?
YES

is_below(residual activity, 40%) for CCN(CC)C(=O)c1ccc(Nc2nc(OCC3CCCCC3)c3nc[nH]c3n2)cc1 ?
YES

is_below(residual activity, 40%) for CO[C@H]1[C@@H](OC)C[C@H](C)[C@@H](OC)C2=CC(=O)C=C(NC(=O)/C(C)=C/C=C/[C@H](OC)[C@@H](OC(N)=O)/C(C)=C/[C@@H]1C)C2=O ?
NO

is_below(residual activity, 40%) for CO[C@@H]1[C@H](N(C)C(=O)c2ccccc2)C[C@H]2O[C@]1(C)n1c3ccccc3c3c4c(c5c6ccccc6n2c5c31)C(=O)NC4 ?
YES

is_below(residual activity, 40%) for COc1cc2ncc(-c3ccccc3)nc2cc1OC ?
YES

----------
Biological target: Casein kinase I isoform delta (Homo sapiens) (UniProt P48730)
Sequence (P48730 whole entry, looked up, canonical isoform): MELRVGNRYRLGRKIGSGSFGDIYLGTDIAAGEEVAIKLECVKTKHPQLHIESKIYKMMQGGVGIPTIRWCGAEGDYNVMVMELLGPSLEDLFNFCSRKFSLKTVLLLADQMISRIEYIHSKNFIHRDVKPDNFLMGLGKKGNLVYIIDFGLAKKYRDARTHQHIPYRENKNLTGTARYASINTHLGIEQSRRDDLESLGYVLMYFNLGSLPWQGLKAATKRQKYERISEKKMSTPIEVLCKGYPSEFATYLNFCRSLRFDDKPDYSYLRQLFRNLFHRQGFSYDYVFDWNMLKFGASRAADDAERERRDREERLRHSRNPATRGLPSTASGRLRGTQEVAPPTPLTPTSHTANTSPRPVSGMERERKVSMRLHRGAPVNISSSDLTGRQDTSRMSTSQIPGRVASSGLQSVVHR
Settings: at 10 µM
Description: Millipore: Percentage of residual kinase activity of CSNK1D at 10uM relative to control. Control inhibitor: Jnk Inhibitor II at 100.0uM. Buffer: 8 mM MOPS pH 7.0, 0.2 mM EDTA
Threshold check on residual activity: at or above 50% gives Fulfilled, strictly below gives Not fulfilled.

Kindly determine if residual activity recorded for Cn1cc(/C=C2\C(=O)Nc3ccc(S(N)(=O)=O)cc32)c2ccccc21 is above or exactly 50%.
Fulfilled

----------
Biological target: Protein kinase C delta type (Homo sapiens)
Details: at 10 µM
Please respond with reported residual activity for every item in the list.
Give bare numbers, in %.

Record residual activity per entry; entries follow.
1. Oc1n[nH]c2nnc(-c3c(-c4ccccc4)nn4ccccc34)cc12
2. NC(=O)c1ccc2[nH]c(-c3ccc(Oc4ccc(Cl)cc4)cc3)nc2c1
3. Oc1ccc(-c2nc(-c3ccc(F)cc3)c(-c3ccncc3)[nH]2)cc1
4. O=C1NC(=O)c2c1c1c3ccccc3[nH]c1c1[nH]c3cc(Br)ccc3c21
5. CO[C@H]1[C@@H](OC)C[C@H](C)[C@@H](OC)C2=CC(=O)C=C(NC(=O)/C(C)=C/C=C/[C@H](OC)[C@@H](OC(N)=O)/C(C)=C/[C@@H]1C)C2=O
6. O=C1Nc2cc(Br)ccc2/C1=C1/Nc2ccccc2/C1=N\O
7. Nc1nc(Nc2ccc(S(N)(=O)=O)cc2)nn1C(=S)Nc1c(F)cccc1F
8. O=C1Nc2ccc(Br)cc2/C1=C\c1cc2c([nH]1)CCCC2

95
107
90
102
107
118
9
107

Record residual activity per entry; entries follow.
1. Nc1n[nH]c2nnc(-c3c(-c4ccccc4)nn4ccccc34)cc12
2. Cc1cncc2cccc(S(=O)(=O)N3CCCN(C(=O)CN)C[C@H]3C)c12
3. Cn1cc(/C=C2\C(=O)Nc3ccc(S(N)(=O)=O)cc32)c2ccccc21
4. CC(C)n1cnc2/c(=N/c3cccc(Cl)c3)nc(NCCO)[nH]c21
5. c1ccc(-c2n[nH]cc2-c2ccnc3ccccc23)nc1
6. O=C(Nc1cccc(Nc2nccc(Nc3cccc(C(F)(F)F)c3)n2)c1)C1CC1
7. Ic1cccc(CSc2nnc(-c3ccncc3)o2)c1

[4, 3, 99, 82, 92, 106, 101]

Record residual activity per entry; entries follow.
1. CN(C)c1ccc(/C=C2\C(=O)Nc3ccccc32)cc1
2. Cc1ccc(NC2=CC(=O)c3sc(C)nc3C2=O)cc1

[101, 102]

Record residual activity per entry; entries follow.
1. Oc1c2ccccc2c2c3c(cccc13)N=N2
2. N#Cc1cnc2cnc(NCc3cccnc3)cc2c1Nc1ccc(F)c(Cl)c1
3. CC(C)n1cnc2c(NCc3ccccc3)nc(NCCCO)nc21
4. COc1ccc(CNc2nc(N(CCO)CCO)nc3c2ncn3C(C)C)cc1
5. N#C/C(=C(\N)Sc1ccc(N)cc1)c1ccccc1C(F)(F)F

[71, 24, 98, 27, 104]

----------
Biological target: Calcium/calmodulin-dependent protein kinase type II subunit beta (Homo sapiens) (UniProt Q13554)
Sequence (Q13554 whole entry): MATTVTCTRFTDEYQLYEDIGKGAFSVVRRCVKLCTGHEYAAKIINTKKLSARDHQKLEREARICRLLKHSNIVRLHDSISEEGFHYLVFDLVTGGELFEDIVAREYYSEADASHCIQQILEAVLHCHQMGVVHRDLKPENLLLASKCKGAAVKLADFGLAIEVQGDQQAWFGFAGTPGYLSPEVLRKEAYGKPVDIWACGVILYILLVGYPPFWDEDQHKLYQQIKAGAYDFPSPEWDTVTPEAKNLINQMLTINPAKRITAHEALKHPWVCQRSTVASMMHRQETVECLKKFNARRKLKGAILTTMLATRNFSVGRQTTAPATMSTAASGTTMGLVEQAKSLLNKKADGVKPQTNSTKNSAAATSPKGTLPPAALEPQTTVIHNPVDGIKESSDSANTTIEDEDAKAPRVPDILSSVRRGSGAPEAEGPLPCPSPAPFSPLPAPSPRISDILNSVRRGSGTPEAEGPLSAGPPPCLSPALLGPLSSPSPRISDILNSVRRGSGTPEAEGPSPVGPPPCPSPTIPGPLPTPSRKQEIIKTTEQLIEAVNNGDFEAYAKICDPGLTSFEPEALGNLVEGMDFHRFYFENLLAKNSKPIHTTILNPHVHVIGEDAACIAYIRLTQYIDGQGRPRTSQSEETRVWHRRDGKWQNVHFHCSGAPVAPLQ
Conditions: at 1 µM
Please respond with reported residual activity for every item in the list.
Answers are plain numbers, in %.

Record excerpt, results attached:
INSERT INTO measurements (molecule, metric, endpoint_result) VALUES
  ('O=C1c2ccccc2-[n+]2ccc3c([nH]c4ccccc43)c21', 'residual activity', 92),
  ('COc1ccc(C(=O)Nc2sc3c(c2C(N)=O)CCCC3)cc1OC', 'residual activity', 83);

Record residual activity per entry; entries follow.
1. CC(=O)O/N=C1\C(=C2\C(=O)Nc3cc(Br)ccc32)Nc2ccccc21
2. COc1ccc(S(=O)(=O)N(CCO)c2ccccc2CN(C)C/C=C/c2ccc(Cl)cc2)cc1
3. c1ccc2c(-c3ccncc3)c[nH]c2c1
4. O=C1NC(=O)/C(=C\c2ccc3nccnc3c2)S1
5. CCOc1cc2ncnc(Nc3cccc(Br)c3)c2cc1OCC
6. CO[C@H]1C[C@@H]2CC[C@@H](C)[C@@](O)(O2)C(=O)C(=O)N2CCCC[C@H]2C(=O)O[C@H]([C@H](C)C[C@@H]2CC[C@@H](O)[C@H](OC)C2)CC(=O)[C@H](C)/C=C(\C)[C@@H](O)[C@@H](OC)C(=O)[C@H](C)C[C@H](C)/C=C/C=C/C=C/1C

[79, 96, 47, 65, 91, 92]

Record residual activity per entry; entries follow.
1. CCN(CC)CCCCN1c2ccccc2Oc2ccc(Cl)cc21
2. COc1cc2ncnc(Nc3ccc(Oc4ccccc4)cc3)c2cc1OC
3. CNc1cc2c(Nc3cccc(Br)c3)ncnc2cn1
4. Cn1cc(/C=C2\C(=O)Nc3ccc(S(N)(=O)=O)cc32)c2ccccc21
5. Nc1ccc2ncnc(NCCc3ccc(Oc4ccccc4)cc3)c2c1

106
88
87
65
72

Record residual activity per entry; entries follow.
1. O=C1NC(=O)/C(=C/c2ccc3c(c2)OC(F)(F)O3)S1
2. c1ccc(-c2n[nH]cc2-c2ccnc3ccccc23)nc1
3. Oc1n[nH]c2nnc(-c3c(-c4ccccc4)nn4ccccc34)cc12
4. COc1cc2ncnc(Nc3ccc(NC(=O)c4ccccc4)cc3)c2cc1OC
5. O=c1c2ccccc2[nH]c(=S)n1CCN1CCC(=C(c2ccc(F)cc2)c2ccc(F)cc2)CC1
6. CCN(CC)C(=O)c1ccc(Nc2nc(OCC3CCCCC3)c3nc[nH]c3n2)cc1
7. Oc1ccc(-c2nc(-c3ccc(F)cc3)c(-c3ccncc3)[nH]2)cc1

1. 94
2. 96
3. 91
4. 102
5. 102
6. 98
7. 92

Record residual activity per entry; entries follow.
1. c1ccc(-c2n[nH]c3c2oc2ccccc23)cc1
2. N#CC(C#N)=C(N)/C(C#N)=C/c1ccc(O)cc1

[87, 96]

Taken from ChEMBL document CHEMBL2218924.
